Target: D(3) dopamine receptor (Rattus norvegicus)
Sequence (P19020 whole entry): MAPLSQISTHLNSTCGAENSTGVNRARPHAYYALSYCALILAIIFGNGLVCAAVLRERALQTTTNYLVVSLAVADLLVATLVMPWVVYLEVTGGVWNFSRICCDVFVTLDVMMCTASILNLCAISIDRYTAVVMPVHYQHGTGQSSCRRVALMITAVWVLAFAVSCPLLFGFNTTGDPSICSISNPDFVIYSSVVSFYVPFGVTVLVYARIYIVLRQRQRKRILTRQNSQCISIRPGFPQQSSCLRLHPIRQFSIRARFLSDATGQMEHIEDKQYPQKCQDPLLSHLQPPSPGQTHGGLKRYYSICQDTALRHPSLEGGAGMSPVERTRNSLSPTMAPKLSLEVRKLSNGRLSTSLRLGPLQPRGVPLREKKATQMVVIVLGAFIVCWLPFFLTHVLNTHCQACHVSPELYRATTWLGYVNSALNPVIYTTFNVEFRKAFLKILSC
experimental-endpoint: Ki (nM)
Report only the number, with the unit nM understood.

| compound | measured-on | Ki [nM] |
| --- | --- | --- |
| CCCN(CCN1CCN(c2ccc(-c3ccccc3)cc2)CC1)C1CCc2nc(N)sc2C1 (single isomer, unassigned; (-)) | D(3) dopamine receptor (Rattus norvegicus) | 0.92 |

Lookup: Ki / D(3) dopamine receptor (Rattus norvegicus) / CCCN(CCN1CCN(c2cccc(Cl)c2Cl)CC1)C1CCc2nc(N)sc2C1 (stereo in doubt; (-)-33)
1.8

Lookup: Ki / D(3) dopamine receptor (Rattus norvegicus) / CCCN(CCN1CCN(c2ccccc2)CC1)C1CCc2ccc(O)cc2C1 (centres undefined)
1.56

Lookup: Ki / D(3) dopamine receptor (Rattus norvegicus) / C#CCN(CCN1CCN(c2cccc(Cl)c2Cl)CC1)C1CCc2nc(N)sc2C1 (centres undefined)
7.1

The measured values listed here are drawn from ChEMBL document CHEMBL1150260.
